target: human CGT (Homo sapiens, UniProt Q16880); assay: Assay 1: CGT Enzymatic Assay (RapidFire/MS/MS, 0.01% Tween 80); assay type: biochemical; conditions: Table 1, Compounds of Formula (I) and Formula (II); CGT enzymatic assay; read-out: IC50
Sequence (Q16880 21-541): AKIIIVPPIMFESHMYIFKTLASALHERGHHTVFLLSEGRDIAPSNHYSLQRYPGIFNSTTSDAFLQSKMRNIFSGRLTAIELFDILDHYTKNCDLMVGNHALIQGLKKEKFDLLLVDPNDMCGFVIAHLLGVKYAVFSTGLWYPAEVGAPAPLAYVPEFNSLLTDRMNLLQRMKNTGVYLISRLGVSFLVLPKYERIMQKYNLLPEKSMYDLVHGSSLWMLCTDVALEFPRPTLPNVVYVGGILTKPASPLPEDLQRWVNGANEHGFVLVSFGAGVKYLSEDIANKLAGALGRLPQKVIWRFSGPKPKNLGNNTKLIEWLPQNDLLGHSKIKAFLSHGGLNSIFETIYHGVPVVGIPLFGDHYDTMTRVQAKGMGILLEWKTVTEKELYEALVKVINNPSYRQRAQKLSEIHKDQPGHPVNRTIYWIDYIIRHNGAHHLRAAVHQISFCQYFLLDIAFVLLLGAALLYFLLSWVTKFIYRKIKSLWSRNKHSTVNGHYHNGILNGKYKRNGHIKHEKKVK
pIC50: −log10 of the molar value.
Property name: pIC50

> print(dat)
                                    molecule        result
 1  O=C1N(c2ccc(OC3CCCC3)cc2)C(=O)C(O)(c2ccccc2)N1c1ccc(OC2CCCC2)cc1 (centres unmarked)        < 4.30
 2  N#Cc1cc(Cl)cc(C2(O)CN(c3ccc(Br)cc3)C(=O)N2c2ccc(Cl)cc2)c1 (centres unmarked)        > 6.00
 3  C[C@@H]1N(c2ccc(Br)cc2)C(=O)N(c2ccc(Br)cc2)C1(O)c1ccccc1 (some centres unmarked)        > 6.00
 4  CCC1(O)C(c2ccccc2)N(c2ccc(Br)cc2)C(=O)N1c1ccc(Br)cc1 (centres unmarked)  5.00 to 6.00
 5  C[C@H]1N(c2ccc(Cl)cc2)C(=O)N(c2ccc(Cl)cc2)C1(O)c1cccc(OC(F)(F)F)c1 (some centres unmarked)        > 6.00
 6  CC#Cc1cccc(C2(O)[C@H](C)N(c3ccc(Cl)cc3)C(=O)N2c2ccc(Cl)cc2)c1 (some centres unmarked)        > 6.00
 7  CCc1c(-c2cccc(C(F)(F)F)c2)n(-c2ccc(Cl)cc2)c(=O)n1-c1ccc(Cl)cc1        > 6.00
 8  O=C1N(c2ccc(Cl)cc2)C2(CC2)C(O)(c2cccc(C(F)(F)F)c2)N1c1ccc(Cl)cc1 (centres unmarked)        > 6.00
 9  C[C@@]1(C(F)(F)F)N(c2ccc(Cl)cc2)C(=O)N(c2ccc(Cl)cc2)C1(O)c1cccc(C#N)c1 (single isomer, unassigned)  5.00 to 6.00
10  CC[C@@H]1N(c2ccc(Cl)cc2)C(=O)N(c2ccc(Cl)cc2)C1(O)c1cccc(Cl)c1 (some centres unmarked)        > 6.00
11  CC[C@H]1N(c2ccc(F)cc2)C(=O)N(c2ccc(F)cc2)C1(O)c1cccc(C(F)(F)F)c1 (single isomer, unassigned)        > 6.00
12  Cc1cccc(C2(O)[C@H](C)N(c3ccc(Br)cc3)C(=O)N2c2ccc(Br)cc2)c1 (some centres unmarked)        > 6.00
13  CCC1N(c2ccc(Br)cc2)C(=O)N(c2ccc(Br)cc2)C1(O)c1ccccc1 (centres unmarked)        > 6.00
14  N#Cc1cccc(C2(O)C(CC3CC3)N(c3ccc(Cl)cc3)C(=O)N2c2ccc(Cl)cc2)c1 (centres unmarked)        > 6.00
15  N#Cc1cccc(C2(O)C(C3CCC3)N(c3ccc(Cl)cc3)C(=O)N2c2ccc(Cl)cc2)c1 (centres unmarked)        > 6.00
16  CCCc1c(-c2cccc(OC(F)(F)F)c2)n(-c2ccc(Cl)cc2)c(=O)n1-c1ccc(Cl)cc1        > 6.00
17  CC(=O)c1cccc(-c2c(C)n(-c3ccc(Cl)cc3)c(=O)n2-c2ccc(Cl)cc2)c1  5.00 to 6.00
